# target.or.test.system: Mu-type opioid receptor (Homo sapiens)
# Sequence (P35372 whole entry): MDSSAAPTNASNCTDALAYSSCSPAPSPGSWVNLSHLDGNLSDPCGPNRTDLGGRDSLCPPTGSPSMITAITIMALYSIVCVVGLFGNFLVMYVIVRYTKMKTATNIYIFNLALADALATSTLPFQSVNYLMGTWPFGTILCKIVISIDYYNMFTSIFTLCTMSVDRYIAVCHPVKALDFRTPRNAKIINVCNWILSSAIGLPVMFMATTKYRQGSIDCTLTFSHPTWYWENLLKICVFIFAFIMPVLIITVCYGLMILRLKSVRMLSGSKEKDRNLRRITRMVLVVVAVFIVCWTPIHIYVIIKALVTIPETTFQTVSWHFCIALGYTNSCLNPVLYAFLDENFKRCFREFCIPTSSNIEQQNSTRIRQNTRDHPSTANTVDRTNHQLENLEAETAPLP
# test.name: Agonist activity at human MOP expressed in HEK293 cells coexpressing GloSensor-20F assessed as inhibition of forskolin-induced cAMP accumulation
# Type: functional, cell-based
# condition.notes: hek293
reported.endpoint: EC50

Lab book: EC50 of Cc1cc(O)cc(C)c1C[C@H](N)C(=O)N[C@H](CCCNC(=N)N)C(=O)N[C@H](Cc1ccccc1)C(=O)N(C)CCC(=O)N[C@@H](CCCN1CCC(Cc2ccccc2)CC1)C(=O)N[C@@H](Cc1ccccc1)C(N)=O noted as 180 nM

====

Kindly state Ki for each of the entries shown.
# target.or.test.system: Neuropeptide FF receptor 2 (Homo sapiens, UniProt Q9Y5X5)
# Sequence (Q9Y5X5 whole entry): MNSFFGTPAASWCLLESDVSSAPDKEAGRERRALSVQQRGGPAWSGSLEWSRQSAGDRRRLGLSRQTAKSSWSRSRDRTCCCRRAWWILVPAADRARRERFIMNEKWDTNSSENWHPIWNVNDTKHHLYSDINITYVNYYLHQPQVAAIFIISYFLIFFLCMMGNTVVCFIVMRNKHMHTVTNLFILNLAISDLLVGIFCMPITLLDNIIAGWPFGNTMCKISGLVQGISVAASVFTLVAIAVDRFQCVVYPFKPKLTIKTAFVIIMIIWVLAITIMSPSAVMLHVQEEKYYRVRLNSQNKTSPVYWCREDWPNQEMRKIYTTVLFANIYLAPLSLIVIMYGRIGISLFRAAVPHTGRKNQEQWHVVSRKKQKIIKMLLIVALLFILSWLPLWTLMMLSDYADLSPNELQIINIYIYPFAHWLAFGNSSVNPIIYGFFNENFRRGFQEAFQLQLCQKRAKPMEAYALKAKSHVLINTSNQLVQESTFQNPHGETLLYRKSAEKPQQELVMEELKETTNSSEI
# test.name: Displacement of [125I]-1DMeNPFF from human NPFFR2 expressed in CHO cell membrane incubated for 1 hr by Topcount counting method
# Format: cell membranes
Numbered stars: 1 amine (or outer) side, 2 acyl side, 3 side chain; on linkers, the order of the positions; unused ones are H or OH. Square brackets hold non-standard residues; d marks the D form. Peptide text beside a SMILES is read from it. Nva(5-(4-Bn-piperidin-1-yl)) = N[C@@H](CCCN1CCC(Cc2ccccc2)CC1)C(=O)O; X1 = O=C1[C@@H](N[*:1])Cc2ccccc2CN1CCC(=O)[*:2]; Dmt = Cc1cc(O)cc(C)c1C[C@H](N)C(=O)O
Give bare numbers, in nM.

molecule	target.or.test.system	Ki (nM)
Cc1cc(O)cc(C)c1C[C@H](N)C(=O)N(C)[C@H](C)C(=O)N[C@H]1Cc2c(ccc3ccccc23)CN(CC(=O)N[C@@H](CCCN2CCC(Cc3ccccc3)CC2)C(=O)N[C@@H](Cc2ccccc2)C(N)=O)C1=O	Neuropeptide FF receptor 2 (Homo sapiens, UniProt Q9Y5X5)	54
Cc1cc(O)cc(C)c1C[C@H](N)C(=O)N(C)[C@H](C)C(=O)N[C@H]1Cc2c(ccc3ccccc23)CN(CCC(=O)N[C@@H](CCCN2CCC(Cc3ccccc3)CC2)C(=O)N[C@@H](Cc2ccccc2)C(N)=O)C1=O	Neuropeptide FF receptor 2 (Homo sapiens, UniProt Q9Y5X5)	32
Cc1cc(O)cc(C)c1C[C@H](N)C(=O)N1CCC[C@@H]1C(=O)N[C@H]1Cc2ccccc2CN(CCC(=O)N[C@@H](CCCN2CCC(Cc3ccccc3)CC2)C(=O)N[C@@H](Cc2ccccc2)C(N)=O)C1=O (H-[Dmt][dP][X1][Nva(5-(4-Bn-piperidin-1-yl))]F-NH2)	Neuropeptide FF receptor 2 (Homo sapiens, UniProt Q9Y5X5)	29

Lab note: next molecule to report on.
Lab book: Ki of Cc1cc(O)cc(C)c1C[C@H](NC(=N)N)C(=O)N[C@H](CCCNC(=N)N)C(=O)N[C@H]1Cc2ccccc2CN(CCC(=O)N[C@@H](CCCN2CCC(Cc3ccccc3)CC2)C(=O)N[C@@H](Cc2ccccc2)C(N)=O)C1=O noted as 4.7
